- PROCEDURE_SUMMARY: Test 4: dissolution test in ethanol/water base
- Assay type: physicochemical
- CONDITION_DETAILS: organic solvent or mixture, thermodynamic from solid; base: 79 mL ethanol, water to 100 mL; stirred at 5° C. for 3 days; HPLC
PROPERTY_NAME: solubility at 3 days

- RECORD_SMILES: "CC1(C)CC(C)(C)CC(O)(C(F)(F)C(=O)N2CCC[C@H]2c2cc(COc3cccnc3)on2)C1"
  EXPERIMENTAL_VALUE: "113 mg/mL"

---

- MEASUREMENT_TARGET: human recombinant FKBP12 (Homo sapiens)
- Sequence (P62942 whole entry): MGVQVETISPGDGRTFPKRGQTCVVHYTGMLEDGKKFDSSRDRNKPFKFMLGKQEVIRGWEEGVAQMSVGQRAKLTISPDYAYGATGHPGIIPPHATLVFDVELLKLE
- PROCEDURE_SUMMARY: Test 1: immunophilin FKBP12 rotamase (peptidylprolyl isomerase) inhibiting activity
- CONDITION_DETAILS: 12 nM human recombinant FKBP12, substrate succinyl-Ala-Phe-Pro-Phe-paranitroanilide 48 μM, 4° C.; read-out: PKBP12 rotamase inhibiting activity IC50
Measured IC50, listed per entry for reference.

- COMPOUND: "CC1(C)CC(C)(C)CC(O)(C(F)(F)C(=O)N2CCC[C@H]2c2cc(CN)on2)C1 [Compound 42]"
  QUANTITY_UNIT: "nM"
  IC50: 447
- COMPOUND: "COc1ccccc1OCc1nnc([C@@H]2CCCN2C(=O)C(F)(F)C2(O)CC(C)(C)CC(C)(C)C2)o1 [Compound 25]"
  QUANTITY_UNIT: "nM"
  IC50: 401
